// reported metabolised at 1 h for each item listed
- Assay Remarks: Drug metabolism in rat liver microsomes after 60 mins
- Assay type: ADME, microsome
- Test Context: read-out: Drug metabolism
Kindly write the number and append the unit.

* COc1ccc(-c2nc3ccccc3n2-c2ccc(Cl)cc2)cc1OC | 5%

// metabolised at 1 h value for COc1ccc(-c2nc3ccccc3n2-c2ccc(Br)cc2)cc1 : 2%

// metabolised at 1 h value for COc1ccc(-c2nc3ccccc3n2-c2ccc(Cl)cc2)cc1 : 0%

###

- Test system: Mycobacterium tuberculosis
- Assay Remarks: Antitubercular activity against Mycobacterium tuberculosis H37Rv at 50 ug/ml after 5 days by microplate alamar blue assay relative to control
- Assay type: functional
- Test Context: 120 h
Parameter: inhibition at 50 µg/mL (%)
Numeric answer only, unit % assumed.

Below, 5 compounds whose answers are already recorded.
* COc1ccc(-c2nc3ccccc3n2-c2ccc(Cl)cc2)cc1OC | 95
* COc1ccc(-c2nc3ccccc3n2-c2ccc(Br)cc2)cc1 | 92
* COc1ccc(-c2nc3ccccc3n2-c2ccc(C(C)C)cc2)cc1 | 68
* COc1ccc(-c2nc3ccccc3n2-c2ccc(Cl)cc2)c(OC)c1 | 95
* c1ccc(-c2nc3ccccn3c2CN2CCOCC2)cc1 | 95

inhibition at 50 µg/mL for Mycobacterium tuberculosis with input COc1ccc(-c2nc3ccccc3n2-c2cccc(Cl)c2)cc1 equals 0

###

- Assay Remarks: Cytotoxicity against African green monkey Vero cells after 72 hrs by sulforhodamine B assay
- Assay type: cell-based
- Test Context: chlorocebus sabaeus
Parameter: GI50 at 72 h (µM)
Numeric answer only, unit µM assumed.

• COc1ccc(-c2nc3ccccc3n2-c2ccc(Cl)cc2)cc1 = 29
• COc1ccc(-c2nc3ccccc3n2-c2ccc(Br)cc2)cc1 = 5

Proceeding to the next compound to report its GI50 at 72 h.
// GI50 at 72 h value for COc1ccc(-c2nc3ccccc3n2-c2ccc(Cl)cc2)cc1OC : 8.2

###

- Assay Remarks: Half life in mouse microsomes
- Format: ADME, Microsome
// reported half-life for each item listed
Numeric answer only, unit min assumed.

- CSc1ccc(-c2cc(CN3CCSCC3)c(C)n2-c2ccc(F)cc2)cc1: 10

Proceeding to the next compound to report its half-life.
// half-life value for Cc1ccc(-c2cc(CN3CCSCC3)c(C)n2-c2ccc(F)cc2)cc1 : 8.2

###

- Test system: Pseudomonas aeruginosa
- Assay Remarks: Antimicrobial activity against gram-negative Pseudomonas aeruginosa ATCC 27853 at 32 ug/ml after 18 hrs
- Assay type: functional
- Test Context: ATCC 27853, 18 h
Parameter: inhibition at 32 µg/mL

- COc1cccc(-c2nc3ccccc3n2-c2ccc(Cl)cc2)c1: 2.25 to 13%

// inhibition at 32 µg/mL value for c1ccc(-c2nc3ccccn3c2CN2CCOCC2)cc1 : 9.04 to 16.5%

// inhibition at 32 µg/mL value for COc1ccc(-c2nc3ccccc3n2-c2cc(C)ccc2C)cc1 : 5.72 to 19.7%

// inhibition at 32 µg/mL value for COc1ccc(-c2nc3ccccc3n2-c2ccc(C(C)C)cc2)cc1 : 6.29 to 15.7%

// inhibition at 32 µg/mL value for c1ccc(-c2nc3ccccn3c2CN2CCCCC2)cc1 : 11.4 to 17.7%

// inhibition at 32 µg/mL value for COc1ccc(-c2nc3ccccc3n2-c2ccc(F)cc2)cc1 : 5.18 to 12.8%

###

- Test system: Mycobacterium tuberculosis
- Assay Remarks: Antitubercular activity against Mycobacterium tuberculosis H37Rv at 50 ug/ml after 5 days by microplate alamar blue assay relative to control
- Type: functional
- Test Context: 120 h
// reported inhibition at 50 µg/mL for each item listed
Numeric answer only, unit % assumed.

Below, 5 molecules whose answers are already recorded.
* Cc1ccn2c(CN3CCCCC3)c(-c3ccccc3)nc2c1 | 95
* c1ccc(-c2nc3ccccn3c2CN2CCCCC2)cc1 | 95
* COc1ccc(-c2nc(-c3ccccc3)cn2-c2ccccc2)cc1 | 95
* Fc1ccc(-c2nc3ccccn3c2CN2CCOCC2)cc1 | 95
* Oc1ccc(-c2nc(-c3ccccc3)cn2-c2ccccc2)cc1 | 95

// inhibition at 50 µg/mL value for Cc1ccn2c(CN3CCOCC3)c(-c3ccccc3)nc2c1 : 95

// inhibition at 50 µg/mL value for COc1ccc(-c2nc3ccccc3n2-c2cccc(OC)c2)cc1 : 14

// inhibition at 50 µg/mL value for COc1ccc(-c2nc3ccccc3n2-c2ccccc2)cc1O : 95

// inhibition at 50 µg/mL value for COc1ccc(-c2nc3ccccc3n2-c2ccc(Cl)cc2)cc1 : 95

###

- Test system: Candida albicans
- Assay Remarks: Antifungal activity against Candida albicans ATCC 90028 at 32 ug/ml after 24 hrs
- Format: functional
- Test Context: ATCC 90028, 24 h
// reported inhibition at 32 µg/mL for each item listed

Below, 3 compounds whose answers are already recorded.
* COc1ccc(-c2nc3ccccc3n2-c2cccc(Cl)c2)cc1 | 4.66 to 7.76%
* COc1ccc(-c2nc3ccccc3n2-c2ccc(Cl)cc2)c(OC)c1 | 2.68 to 3.53%
* COc1ccc(-c2nc3ccccc3n2-c2cc(C)ccc2C)cc1 | 1.69 to 4.32%

// inhibition at 32 µg/mL value for Fc1ccc(-c2nc3ccccn3c2CN2CCOCC2)cc1 : 0.63 to 5.39%

// inhibition at 32 µg/mL value for COc1cccc(-c2nc3ccccc3n2-c2ccc(Cl)cc2)c1 : 4.73 to 28.1%

// inhibition at 32 µg/mL value for COc1ccc(-c2nc3ccccc3n2-c2ccc(F)cc2)cc1 : 1.62 to 1.69%

###

- Test system: HepG2
- Assay Remarks: Cytotoxicity against human HepG2 cells after 24 hrs by MTT assay
- Assay type: cell-based
- Test Context: HepG2, 24 h
Parameter: pIC50
In plain terms, pIC50 is the concentration in mol/L turned into minus its base-10 logarithm.

Below, 2 molecules whose answers are already recorded.
- COc1ccc(-c2nc3ccccc3n2-c2ccc(Cl)cc2)cc1OC: 4.30
- COc1ccc(-c2nc3ccccc3n2-c2ccc(Cl)cc2)cc1: 3.69

Proceeding to the next molecule to report its pIC50.
// pIC50 value for COc1ccc(-c2nc3ccccc3n2-c2ccc(Br)cc2)cc1 : 3.95

###

- Assay Remarks: Half life in mouse microsomes
- Assay type: ADME, Microsome
// reported half-life for each item listed

Below, 2 compounds whose answers are already recorded.
- COc1ccc(-c2cc(CN3CCSCC3)c(C)n2-c2ccc(F)cc2)cc1: < 5 min
- Cc1c(CN2CCOCC2)cc(-c2ccc(C(C)C)cc2)n1-c1ccc(F)cc1: > 30 min

Proceeding to the next compound to report its half-life.
// half-life value for Cc1c(CN2CCN(C)CC2)cc(-c2ccc(Cl)cc2)n1-c1ccc(Cl)cc1 : > 30 min

###

- System: Pseudomonas aeruginosa
- Assay Remarks: Antimicrobial activity against gram-negative Pseudomonas aeruginosa ATCC 27853 at 32 ug/ml after 18 hrs
- Assay type: functional
- Test Context: ATCC 27853, 18 h
// reported inhibition at 32 µg/mL for each item listed

// inhibition at 32 µg/mL value for Fc1ccc(-c2nc3ccccn3c2CN2CCOCC2)cc1 : 11 to 14.3%

// inhibition at 32 µg/mL value for COc1ccc(-c2nc3ccccc3n2-c2cccc(Cl)c2)cc1 : 7.07 to 24.5%

// inhibition at 32 µg/mL value for Cc1ccn2c(CN3CCOCC3)c(-c3ccc(F)cc3)nc2c1 : 9.71 to 27%

###

- Test system: Mycobacterium tuberculosis
- Assay Remarks: Antitubercular activity against Mycobacterium tuberculosis H37Rv at 50 ug/ml after 5 days by microplate alamar blue assay relative to control
- Assay type: functional
- Test Context: 120 h
Parameter: inhibition at 50 µg/mL (%)
Numeric answer only, unit % assumed.

Below, 2 molecules whose answers are already recorded.
- Cc1ccc2nc(-c3ccc(F)cc3)c(CN3CCOCC3)n2c1: 95
- COc1ccc(-c2nc3ccccc3n2-c2cc(C)ccc2C)cc1: 80

Proceeding to the next molecule to report its inhibition at 50 µg/mL.
// inhibition at 50 µg/mL value for COc1ccc(-c2nc3ccccc3n2-c2ccc(F)cc2)cc1 : 6

###

- Tested on: Candida albicans
- Assay Remarks: Antifungal activity against Candida albicans ATCC 90028 at 32 ug/ml after 24 hrs
- Assay type: functional
- Test Context: ATCC 90028, 24 h
Parameter: inhibition at 32 µg/mL

Below, 5 molecules whose answers are already recorded.
* COc1ccc(-c2nc3ccccc3n2-c2ccc(C(C)C)cc2)cc1 | 13.1 to 14.2%
* Cc1ccn2c(CN3CCOCC3)c(-c3ccccc3)nc2c1 | 0.89 to 1.68%
* COc1ccc(-c2nc3ccccc3n2-c2ccccc2)cc1O | 6.64 to 11.3%
* Cc1ccc2nc(-c3ccc(F)cc3)c(CN3CCOCC3)n2c1 | 3.4 to 6.17%
* COc1ccc(-c2nc(-c3ccccc3)cn2-c2ccccc2)cc1 | 17.5 to 26.4%

// inhibition at 32 µg/mL value for COc1ccc(-c2nc3ccccc3n2-c2ccc(Cl)cc2)cc1 : 12.2 to 12.9%

// inhibition at 32 µg/mL value for COc1ccc(-c2nc3ccccc3n2-c2ccc(Br)cc2)cc1 : 9.75 to 11.7%

// inhibition at 32 µg/mL value for COc1ccc(-c2nc3ccccc3n2-c2cccc(OC)c2)cc1 : 5.26 to 8.76%

// inhibition at 32 µg/mL value for c1ccc(-c2nc3ccccn3c2CN2CCOCC2)cc1 : 0.3 to 6.38%

// provenance: ChEMBL document CHEMBL4043142
